Data credit: paper PMC11171525

- Tested on: PpCM1
- ASSAY: CM activity assay, recombinant PpCM1 (disappearance of chorismate at 274 nm)
- Format: biochemical, Pinus pinaster
- EXPERIMENTAL_CONDITIONS: inhibition of CM activity by Phe; read-out: EC50 (Phe)
TEST_READOUT: EC50 (µM)
Answers are plain numbers, in µM.

Any idea what EC50 was measured for N[C@@H](Cc1ccccc1)C(=O)O [Phe, phenylalanine] ?
36

###

- Tested on: PpCM2
- ASSAY: CM activity assay, recombinant PpCM2 (disappearance of chorismate at 274 nm)
- Assay type: biochemical, Pinus pinaster
- EXPERIMENTAL_CONDITIONS: activation of CM activity by Trp; read-out: EC50 (Trp)
TEST_READOUT: EC50

# get_value(readout='EC50', item= N[C@@H](Cc1c[nH]c2ccccc12)C(=O)O [Trp, tryptophan] )
~100 nM
